# assayOverview: Inhibition of [125I]ET1 binding to porcine kidney inner medulla membranes
propertyLabel: IC50 (nM)

Reference set (2 entries):
[[record]]
chemsmiles = "CCOc1ccc2c(c1)c(-c1ccc3c(c1)OCO3)c(C(=O)O)c(=O)n2Cc1ccccc1OC"
propertylabel = "IC50"
measurementunits = "nM"
val = 450

[[record]]
chemsmiles = "COc1ccccc1Cn1c(=O)c(C(=O)O)c(-c2ccc3c(c2)OCO3)c2ccccc21"
propertylabel = "IC50"
measurementunits = "nM"
val = 940


(A) CCOc1ccc2c(c1)c(-c1ccc(OC)cc1)c(C(=O)O)c(=O)n2Cc1ccccc1OC
(B) CCc1ccc2c(c1)c(-c1ccc3c(c1)OCO3)c(C(=O)O)c(=O)n2Cc1ccccc1OC
(C) COc1ccc(Cn2c(=O)c(C(=O)O)c(-c3ccc4c(c3)OCO4)c3ccccc32)cc1
stdin: hey, can you rank those compounds up there by IC50? biggest number first please Output spec: labels arranged per the requested ranking.
stdout: C, B, A

====

# assayOverview: Inhibition of [125I]ET1 binding to porcine kidney inner medulla membranes
pIC50: −log10 of the molar value.
propertyLabel: pIC50

[[record]]
chemsmiles = "CCOc1ccc2c(c1)c(-c1ccc(OC)cc1OC)c(C(=O)O)c(=O)n2Cc1ccccc1OC"
val = 6.27


(1) COc1ccccc1Cn1c(=O)c(C(=O)O)c(-c2ccc3c(c2)OCO3)c2c(OC)c(OC)ccc21
(2) CCOc1ccc2c(c1)c(-c1ccc(OC)cc1)c(C(=O)O)c(=O)n2Cc1cc(OC)ccc1OC
stdin: Kindly compare 1 with 2 and tell me which has the lower pIC50 figure. In your reply, give the label of the chosen option.
stdout: 1
(1: 5.59, 2: 6.70)
